- System: PANC-04-03 (Pancreatic Carcinoma)
- protocol details: Bliss excess, mean over the matrix (fraction); higher = more synergy
Hi there, I'd appreciate the recorded Bliss excess for every entry that follows.
Output spec: single numeric token, no unit.

The compound identified as CN(CCO)CC[C@H](CSc1ccccc1)Nc1ccc(S(=O)(=O)NC(=O)c2ccc(N3CCC([C@@H](O)c4ccccc4-c4ccc(Cl)cc4)CC3)cc2)cc1S(=O)(=O)C(F)(F)F [AZD4320] + CS(=O)(=O)CCNCc1ccc(-c2ccc3ncnc(Nc4ccc(OCc5cccc(F)c5)c(Cl)c4)c3c2)o1 [Lapatinib] (first compound max 1 µM, 7x7, partner max 10 µM) registered its Bliss excess at -0.0143

The compound identified as O=C(c1cc(Cc2n[nH]c(=O)c3ccccc23)ccc1F)N1CCN(C(=O)C2CC2)CC1 [Olaparib] + COc1nnc2ccc(N3CCC(c4ccc(OCCN5CCN(C)C(=O)[C@H]5C)cc4)CC3)nn12 [AZD5153] (first compound max 10 µM, 7x7, partner max 1 µM) registered its Bliss excess at -0.0698

The compound identified as C[C@@H](Nc1cc(F)cc(F)c1)c1cc(C(=O)N(C)C)cc2c(=O)cc(N3CCOCC3)oc12 [AZD8186] + CC(=O)c1c(C)c2cnc(Nc3ccc(N4CCNCC4)cn3)nc2n(C2CCCC2)c1=O [Palbociclib] (first compound max 10 µM, 7x7, partner max 10 µM) registered its Bliss excess at 0.0107

The compound identified as C[C@@H](c1ccc2nccn2c1)n1nnc2ncc(-c3cnn(C)c3)nc21 [Savolitinib] + Cc1c2c(nn1C)CSCc1cc(n(C)n1)CSc1cc(c3ccccc3c1)OCCCc1c(C(=O)O)n(C)c3c-2c(Cl)ccc13 [AZD5991] (first compound max 1 µM, 7x7, partner max 1 µM) registered its Bliss excess at -0.0216

The compound identified as C[C@@H](Oc1cc(-c2cnn(C3CCNCC3)c2)cnc1N)c1c(Cl)ccc(F)c1Cl [Crizotinib] + CC1=C(C(=CC=C1)Cl)NC(=O)C2=CN=C(S2)NC3=CC(=NC(=N3)C)N4CCN(CC4)CCO [Dasatinib] (first compound max 10 µM, 7x7, partner max 2 µM) registered its Bliss excess at -0.0683

The compound identified as COc1cccc(OCCCN)c1-c1cc(Nc2cnc(C#N)cn2)n[nH]1 [Prexasertib] + C[C@@H]1COCCN1C2=NC(=NC(=C2)C3(CC3)[S@](=N)(=O)C)C4=C5C=CNC5=NC=C4 [AZD6738] (first compound max 1 µM, 7x7, partner max 10 µM) registered its Bliss excess at 0.0017

The compound identified as CC1(C)CCC(CN2CCN(c3ccc(C(=O)NS(=O)(=O)c4ccc(NCC5CCOCC5)c([N+](=O)[O-])c4)c(Oc4cnc5[nH]ccc5c4)c3)CC2)=C(c2ccc(Cl)cc2)C1 [Venetoclax] + CS(=O)(=O)CCNCc1ccc(-c2ccc3ncnc(Nc4ccc(OCc5cccc(F)c5)c(Cl)c4)c3c2)o1 [Lapatinib] (first compound max 1 µM, 7x7, partner max 10 µM) registered its Bliss excess at -0.0396

====

Hi there, I'd appreciate the recorded combination Emax for every entry that follows.
- Test system: VA-ES-BJ (Other Solid Carcinomas)
- protocol details: combination Emax (second highest fraction inhibited in the dose matrix, 72 h); higher = more inhibition; extreme values may be limits of the assay
Output spec: single numeric token, no unit.

The compound identified as Cc1c2c(nn1C)CSCc1cc(n(C)n1)CSc1cc(c3ccccc3c1)OCCCc1c(C(=O)O)n(C)c3c-2c(Cl)ccc13 [AZD5991] + C1CN(CCC1(C(=O)N[C@@H](CCO)C2=CC=C(C=C2)Cl)N)C3=NC=NC4=C3C=CN4 [Capivasertib] (first compound max 1 µM, 7x7, partner max 3 µM) registered its combination Emax at 0.227

The compound identified as CN(CCO)CC[C@H](CSc1ccccc1)Nc1ccc(S(=O)(=O)NC(=O)c2ccc(N3CCC([C@@H](O)c4ccccc4-c4ccc(Cl)cc4)CC3)cc2)cc1S(=O)(=O)C(F)(F)F [AZD4320] + CCN(CCO)CCCOc1ccc2c(Nc3cc(CC(=O)Nc4cccc(F)c4)[nH]n3)ncnc2c1 [AZD2811] (first compound max 1 µM, 7x7, partner max 1 µM) registered its combination Emax at 0.291

The compound identified as C=CCn1c(=O)c2cnc(Nc3ccc(N4CCN(C)CC4)cc3)nc2n1-c1cccc(C(C)(C)O)n1 [AZD1775] + C[C@@H]1COCCN1C2=NC(=NC(=C2)C3(CC3)[S@](=N)(=O)C)C4=C5C=CNC5=NC=C4 [AZD6738] (first compound max 1 µM, partner max 10 µM) registered its combination Emax at 0.822

The compound identified as Cc1c2c(nn1C)CSCc1cc(n(C)n1)CSc1cc(c3ccccc3c1)OCCCc1c(C(=O)O)n(C)c3c-2c(Cl)ccc13 [AZD5991] + C[C@@H](Nc1cc(F)cc(F)c1)c1cc(C(=O)N(C)C)cc2c(=O)cc(N3CCOCC3)oc12 [AZD8186] (first compound max 1 µM, 7x7, partner max 3 µM) registered its combination Emax at 0.322

The compound identified as Cn1cnc2c(F)c(Nc3ccc(Br)cc3Cl)c(C(=O)NOCCO)cc21 [Selumetinib] + CC(C)n1c(=O)n(C)c2cnc3cc(F)c(-c4ccc(OCCCN5CCCCC5)nc4)cc3c21 [AZD1390] (first compound max 10 µM, 7x7, partner max 0.3 µM) registered its combination Emax at 0.129

The compound identified as COc1nnc2ccc(N3CCC(c4ccc(OCCN5CCN(C)C(=O)[C@H]5C)cc4)CC3)nn12 [AZD5153] + CN(CC[C@H](CSC1=CC=CC=C1)NC2=C(C=C(C=C2)S(=O)(=O)NC(=O)C3=CC=C(C=C3)N4CCC(CC4)[C@H](C5=CC=CC=C5C6=CC=C(C=C6)Cl)O)S(=O)(=O)C(F)(F)F)CCO [AZD4320] (first compound max 1 µM, 7x7, partner max 1 µM) registered its combination Emax at 0.517

The compound identified as CN(C)CCCOc1ccc(-c2ccc3ncc4c(c3c2)n(C2CCOCC2)c(=O)n4C)cn1 [AZD0156] + C[C@@H]1COCCN1C2=NC(=NC(=C2)C3(CC3)[S@](=N)(=O)C)C4=C5C=CNC5=NC=C4 [AZD6738] (first compound max 1 µM, 7x7, partner max 10 µM) registered its combination Emax at 0.699

The compound identified as CCN(CCO)CCCOc1ccc2c(Nc3cc(CC(=O)Nc4cccc(F)c4)[nH]n3)ncnc2c1 [AZD2811] + C=CCn1c(=O)c2cnc(Nc3ccc(N4CCN(C)CC4)cc3)nc2n1-c1cccc(C(C)(C)O)n1 [AZD1775] (first compound max 1 µM, partner max 1 µM) registered its combination Emax at 0.356

====

- System: Caov-4 (Ovarian Carcinoma)
- protocol details: Bliss excess, mean over the matrix (fraction); higher = more synergy
reported property: Bliss excess
Output spec: single numeric token, no unit.

The molecule identified as CC1(C)CCC(CN2CCN(c3ccc(C(=O)NS(=O)(=O)c4ccc(NCC5CCOCC5)c([N+](=O)[O-])c4)c(Oc4cnc5[nH]ccc5c4)c3)CC2)=C(c2ccc(Cl)cc2)C1 [Venetoclax] + C=CCn1c(=O)c2cnc(Nc3ccc(N4CCN(C)CC4)cc3)nc2n1-c1cccc(C(C)(C)O)n1 [AZD1775] (first compound max 1 µM, partner max 1 µM) registered its Bliss excess at 0.0534

The molecule identified as CCc1c2c(nc3ccc(O)cc13)-c1cc3c(c(=O)n1C2)COC(=O)[C@]3(O)CC [SN-38] + O=C(c1cc(Cc2n[nH]c(=O)c3ccccc23)ccc1F)N1CCN(C(=O)C2CC2)CC1 [Olaparib] (first compound max 0.3 µM, 7x7, partner max 10 µM) registered its Bliss excess at 0.0748

The molecule identified as Cc1c2c(nn1C)CSCc1cc(n(C)n1)CSc1cc(c3ccccc3c1)OCCCc1c(C(=O)O)n(C)c3c-2c(Cl)ccc13 [AZD5991] + C[C@@H]1COCCN1C2=NC(=NC(=C2)C3(CC3)[S@](=N)(=O)C)C4=C5C=CNC5=NC=C4 [AZD6738] (first compound max 1 µM, 7x7, partner max 10 µM) registered its Bliss excess at -0.0205

The molecule identified as CCN(CCO)CCCOc1ccc2c(Nc3cc(CC(=O)Nc4cccc(F)c4)[nH]n3)ncnc2c1 [AZD2811] + C[C@@H]1COCCN1C2=NC(=NC(=C2)C3(CC3)[S@](=N)(=O)C)C4=C5C=CNC5=NC=C4 [AZD6738] (first compound max 1 µM, 7x7, partner max 10 µM) registered its Bliss excess at -0.0065

====

- Tested on: KARPAS-299 (T-Cell Non-Hodgkin's Lymphoma)
- protocol details: Bliss excess, mean over the matrix (fraction); higher = more synergy
Hi there, I'd appreciate the recorded Bliss excess for every entry that follows.

The compound identified as CN(CCO)CC[C@H](CSc1ccccc1)Nc1ccc(S(=O)(=O)NC(=O)c2ccc(N3CCC([C@@H](O)c4ccccc4-c4ccc(Cl)cc4)CC3)cc2)cc1S(=O)(=O)C(F)(F)F [AZD4320] + C1CN(CCC1(C(=O)N[C@@H](CCO)C2=CC=C(C=C2)Cl)N)C3=NC=NC4=C3C=CN4 [Capivasertib] (first compound max 1 µM, 7x7, partner max 3 µM) registered its Bliss excess at -0.0024

The compound identified as Cc1cc2ncnn2cc1Nc1ncc2c(n1)n(C1CCOCC1)c(=O)n2C [AZD7648] + CCN(CCO)CCCOc1ccc2c(Nc3cc(CC(=O)Nc4cccc(F)c4)[nH]n3)ncnc2c1 [AZD2811] (first compound max 10 µM, 7x7, partner max 1 µM) registered its Bliss excess at 0.0493

The compound identified as COc1cc2c(cc1OCCCCCOc1cc3c(cc1OC)C(=O)N1C=C(C)C[C@H]1C=N3)N=C[C@@H]1CC(C)=CN1C2=O [SG3199] + O=C(c1cc(Cc2n[nH]c(=O)c3ccccc23)ccc1F)N1CCN(C(=O)C2CC2)CC1 [Olaparib] (first compound max 0.001 µM, 7x7, partner max 10 µM) registered its Bliss excess at -0.0122
